# studySystem: T1, ZFP SBS#1034 (synthetic)
# T1 chain: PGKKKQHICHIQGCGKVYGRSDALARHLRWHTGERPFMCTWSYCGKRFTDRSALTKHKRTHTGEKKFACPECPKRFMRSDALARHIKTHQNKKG
# procedureText: EMSA
# assaySetup: tags: MBP fusion
parameter: Kd

In: Report Kd for GTGTTCGTG (dsDNA) DNA 1: GTGTTCGTG DNA 2: CACGAACAC please.
Out: 14.6 nM
